Origin of measurements: ChEMBL document CHEMBL1614632

# assayNotes: clinical
# conditionNotes: human, in vivo, iv
Note to self: class labels come from recorded MRT, ranges listed here: low-valued = under 3 h, mid-valued = from 3 h up to 8 h, high-valued = 8 h and over

CC(=O)Nc1c(I)c(NC(C)=O)c(I)c(C(=O)O)c1I [DIATRIZOIC ACID] : low-valued
CNC(=C[N+](=O)[O-])NCCSCc1ccc(CN(C)C)o1 [RANITIDINE] : low-valued
CCCC(=O)Nc1ccc(OCC(O)CNC(C)C)c(C(C)=O)c1 (configuration not stated) [ACEBUTOLOL] : low-valued

As a next step, examine the compound that follows.
Input line: Category lookup for the compound CCCCCN(C)CCC(O)(P(=O)(O)O)P(=O)(O)O [IBANDRONIC ACID]
Output line: mid-valued

* * *

# assayNotes: clinical
# conditionNotes: human, in vivo, iv, Vdss
Recorded measurements of Vd, one per entry
Lab book: enter the figure in L/kg, no units written.

Input line: Vd for "CC(=O)CCCCn1c(=O)c2c(ncn2C)n(C)c1=O" ?
Output line: 1.8

Input line: How about Cc1cccc(C)c1NC(=O)C1CCCCN1C (centres undefined) [MEPIVACAINE] ?
Output line: 0.95

Input line: How about CCCCNC(=O)NS(=O)(=O)c1ccc(C)cc1 [TOLBUTAMIDE] ?
Output line: 0.12

* * *

Recorded measurements of clearance, one per entry
# assayNotes: clinical
# conditionNotes: human, in vivo, iv, CL
Lab book: enter the figure in mL/min/kg, no units written.

Here are 5 compounds together with their reported answers.
CCNCC(O)c1cccc(O)c1 (stereo not drawn) : 14
C[C@@H]([C@@H](O)c1ccc(O)cc1)N1CCC(O)(c2ccccc2)CC1 : 27
CC1=NS(=O)(=O)c2cc(Cl)ccc2N1 [DIAZOXIDE] : 0.06
CCC(CC)O[C@@H]1C=C(C(=O)O)C[C@H](N)[C@H]1NC(C)=O [OSELTAMIVIR CARBOXYLATE] : 4.8
Nc1nc(F)nc2c1ncn2[C@@H]1O[C@H](CO)[C@@H](O)[C@@H]1O : 3.2

Input line: clearance for Nc1nc2c(c(=O)[nH]1)N(C=O)C(CNc1ccc(C(=O)N[C@@H](CCC(=O)O)C(=O)O)cc1)CN2 (stereo partly drawn) ?
Output line: 5.8

Input line: How about "COc1ccc([C@]2(C#N)CC[C@@H](C(=O)O)CC2)cc1OC1CCCC1" ?
Output line: 0.5

Input line: How about "Cc1onc(-c2c(F)cccc2Cl)c1C(=O)N[C@@H]1C(=O)N2[C@@H]1SC(C)(C)[C@@H]2C(=O)O" ?
Output line: 2.4

Input line: How about CN1Cc2c(N)cccc2C(c2ccccc2)C1 (stereo not drawn) ?
Output line: 22

Input line: How about "COc1ccc2c3c1O[C@H]1C[C@@H](O)C=C[C@@]31CCN(C)C2" ?
Output line: 5.6

Input line: How about COC(=O)C1=C(C)NC(C)=C(C(=O)OC(C)C)C1c1cccc2nonc12 (stereo not drawn) ?
Output line: 26

Input line: How about "CCC#CC[C@H](C)[C@H](O)C#C[C@@H]1[C@H]2C/C(=C/COCC(=O)O)C[C@H]2C[C@H]1O" ?
Output line: 3.8

Input line: How about "CC(=O)N[C@H]1[C@H]([C@H](O)[C@H](O)CO)OC(C(=O)O)=C[C@@H]1N=C(N)N" ?
Output line: 1.6

Input line: How about "CC1=C(C(=O)O)N2C(=O)[C@@H](NC(=O)[C@H](N)c3ccc(O)cc3)[C@H]2SC1" ?
Output line: 2.5

* * *

# assayNotes: clinical
# conditionNotes: human, in vivo, iv, CL
So basically, if clearance comes in under 4 mL/min/kg it's Condition met, and if it's 4 mL/min/kg or more it's Condition not met.

Input line: Say whether its clearance is strictly beneath 4 mL/min/kg. Entry: O=C1CN=C(c2ccccc2Cl)c2cc(Cl)ccc2N1 [DELORAZEPAM]
Output line: Condition met

* * *

# assayNotes: clinical
# conditionNotes: human, in vivo, iv
Recorded measurements of log10 of MRT, one per entry
Recall that a logarithmic scale is used here: each number is log10 of MRT in h.

Here are 5 molecules together with their reported answers.
O=C(O)C(Cl)Cl [DICHLOROACETIC ACID] : -0.22
CCOc1ccc(NC(C)=O)cc1 [PHENACETIN] : 0.04
Cc1nnc2n1-c1ccc(Cl)cc1C(c1ccccc1Cl)=NC2 [TRIAZOLAM] : 0.51
NCc1ccccc1CC(=O)N[C@@H]1C(=O)N2C(C(=O)O)=C(CSc3nnnn3CC(=O)O)CS[C@H]12 [CEFORANIDE] : 0.63
COc1ccc2c(c1)c(CC(=O)O)c(C)n2C(=O)c1ccc(Cl)cc1 [INDOMETHACIN] : 0.08

Input line: log10 of MRT for c1ccc2c(c1)OCC(C1=NCCN1)O2 (configuration not stated) [IDAZOXAN] ?
Output line: 0.74

* * *

# assayNotes: clinical
# conditionNotes: human, in vivo, iv, t1/2
Recorded measurements of log10(half-life), one per entry
Recall that a logarithmic scale is used here: each number is log10 of half-life in h.

Here are 5 molecules together with their reported answers.
CCc1nn(CCCN2CCN(c3cccc(Cl)c3)CC2)c(=O)n1CCOc1ccccc1 : 0.08
CC1(C)S[C@@H]2[C@H](NC(=O)C(c3ccccc3)S(=O)(=O)O)C(=O)N2[C@H]1C(=O)O (some centres not stated) : 0.08
CC1COc2c(N3CCN(C)CC3)c(F)cc3c(=O)c(C(=O)O)cn1c23 (configuration not stated) : 0.95
COc1nc(C)nc(Cl)c1N=C1NCCN1 : 0.34
O=C(O)Cn1c(=O)c(=O)[nH]c2cc([N+](=O)[O-])c(-n3ccnc3)cc21 : -0.11

Input line: log10(half-life) for "Nc1ncnc2c1ncn2CCOCP(=O)(O)O" ?
Output line: 0.20

Input line: How about "COCC(=O)O[C@]1(CCN(C)CCCc2nc3ccccc3[nH]2)CCc2cc(F)ccc2[C@@H]1C(C)C" ?
Output line: 1.11

Input line: How about "CN[C@@H]1CCc2[nH]c3ccc(C(N)=O)cc3c2C1" ?
Output line: 1.38

Input line: How about "CC(=O)O[C@H]1C[C@]2(C)CC[C@H]3[C@@H]4C[C@H](N5CC[N+](C)(C)CC5)[C@H](OC(C)=O)[C@@]4(C)CC[C@@H]3[C@@]2(C)C[C@@H]1N1CC[N+](C)(C)CC1.[Br-].[Br-]" ?
Output line: 0.28

Input line: How about Cc1ccccc1OCC(O)CNCCOc1ccc(C(N)=O)cc1 (configuration not stated) ?
Output line: 0.40

Input line: How about "Cc1cc(O)c2c(=O)c3c(O)cc(O)c4c5c(O)cc(O)c6c(=O)c7c(O)cc(CO)c8c1c2c(c34)c(c65)c78" ?
Output line: 1.30

Input line: How about CCC1CN2CCC1CC2[C@@H](O)c1ccnc2ccc(OC)cc12 (some centres not stated) [DIHYDROQUINIDINE] ?
Output line: 0.76

Input line: How about "CN(C)CCc1c[nH]c2ccc(CS(=O)(=O)N3CCCC3)cc12" ?
Output line: 0.53

Input line: How about COCCOC(=O)C1=C(C)NC(C)=C(C(=O)OC(C)C)C1c1cccc([N+](=O)[O-])c1 (configuration not stated) ?
Output line: 0.11

Input line: How about "Cc1nnc2n1-c1ccc(Cl)cc1C(c1ccccc1Cl)=NC2" ?
Output line: 0.43

Input line: How about C=CC[N+]12CC[C@@]34c5ccccc5N5/C=C6/[C@H]7C[C@H]8[C@@]9(CC[N@@+]8(CC=C)C/C7=C/CO)c7ccccc7N(/C=C(/[C@@H](C[C@@H]31)/C(=C\CO)C2)[C@H]54)[C@@H]69 (some centres not stated) ?
Output line: 0.56

* * *

# assayNotes: clinical
# conditionNotes: human, in vivo, iv, Vdss
So basically, if Vd comes in under 0.7 L/kg it's yes, and if it's 0.7 L/kg or more it's no.

Solved cases below.
CC(C)(C)[C@H](NC(=O)[C@H](CC1CCCC1)CN(O)C=O)C(=O)N1CCN(Cc2ccc3c(c2)OCO3)CC1 : no
CCN(CC)CCNC(=O)c1ccc(NS(C)(=O)=O)cc1 [SEMATILIDE] : no

Input line: Say whether its Vd is strictly beneath 0.7 L/kg. Entry: "C[C@@H](O)[C@H]1C(=O)N2C(C(=O)O)=C(S[C@@H]3CN[C@H](C(=O)Nc4cccc(C(=O)O)c4)C3)[C@H](C)[C@H]12"
Output line: yes

Input line: How about CC(CN(C)C)CN1c2ccccc2CCc2ccccc21 (stereo not given) [TRIMIPRAMINE] ?
Output line: no

Input line: How about CN[C@@H]1[C@@H](O)[C@@H](O[C@@H]2[C@@H](O)[C@H](O[C@H]3OC(CN)=CC[C@H]3N)[C@@H](N)C[C@H]2N)OC[C@]1(C)O [SISOMICIN] ?
Output line: yes

Input line: How about CO/N=C(\C(=O)N[C@@H]1C(=O)N2C(C(=O)O)=C(CSc3nc(=O)c(=O)[nH]n3C)CS[C@H]12)c1csc(N)n1 [CEFTRIAXONE] ?
Output line: yes

Input line: How about C/C=C/C[C@@H](C)C(=O)[C@H]1C(=O)N[C@@H](C(C)C)C(=O)N(C)CC(=O)N(C)[C@@H](CC(C)C)C(=O)N[C@@H](C(C)C)C(=O)N(C)[C@@H](CC(C)C)C(=O)N[C@@H](C)C(=O)N[C@H](C)C(=O)N(C)[C@@H](CC(C)C)C(=O)N(C)[C@@H](CC(C)C)C(=O)N(C)[C@@H](C(C)C)C(=O)N1C [VALSPODAR] ?
Output line: no

Input line: How about CCCN(CCC)S(=O)(=O)c1ccc(C(=O)O)cc1 [PROBENECID] ?
Output line: yes

Input line: How about Nc1ccc(O)c(C(=O)O)c1 [MESALAMINE] ?
Output line: yes

Input line: How about Cc1[nH]c(=O)c(C#N)cc1-c1ccncc1 [MILRINONE] ?
Output line: yes

Input line: How about CC(=O)N(CC(O)CO)c1c(I)c(C(=O)NCC(O)CO)c(I)c(C(=O)NCC(O)CO)c1I (stereo not given) [IOHEXOL] ?
Output line: yes
